Where do these numbers come from? They come from ChEMBL document CHEMBL4402577.

- System: L6
- test.protocol: Cytotoxicity against rat L6 cells incubated for 70 hrs by resazurin dye based assay
- Type: cell-based
- measurement.setup: L6, 70 h
Task for the reader: assign each of the following molecules its reported pEC50.
One number for each entry, as −log10 of the molar value.

Examples with answers:
CC(=O)Nc1ccc2[nH]c(=O)n(C3CCCCC3)c(=O)c2c1    4.15
CC(=O)Nc1ccc2[nH]c(=O)n(CCCC3CCCCC3)c(=O)c2c1    4.06
CC(=O)Nc1cnc2[nH]c(=O)n(CCC3CCCCC3)c(=O)c2c1    3.89

Your task in this section: give pEC50 for each listed record.
1. CC(=O)Nc1ccc2[nH]c(=O)n(C3CCC(C)(C)CC3)c(=O)c2c1
2. CC[C@H]1CC[C@@H](n2c(=O)[nH]c3ccc(NC(C)=O)cc3c2=O)CC1
3. CCC[C@H]1CC[C@@H](n2c(=O)[nH]c3ccc(NC(C)=O)cc3c2=O)CC1
4. COc1cc([C@@H]2c3cc4c(cc3[C@H](O)[C@H]3COC(=O)[C@H]23)OCO4)cc(OC)c1OC
5. CC[C@H]1CC[C@H](n2c(=O)[nH]c3ccc(N)cc3c2=O)CC1

Solution:
1: 4.92; 2: 4.41; 3: 4.85; 4: 7.85; 5: 4.49

---

- test.protocol: Intrinsic clearance in CD1 mouse liver microsomes at 0.5 uM measured up to 30 mins in presence of NADPH by UPLC-MSMS analysis
- Type: ADME, Microsome
- measurement.setup: 0.5 h
quantity: intrinsic clearance

CC(=O)Nc1ccc2[nH]c(=O)n([C@H]3CC[C@@H](C(C)(C)C)CC3)c(=O)c2c1    < 0.5 mL/min/g
CC(=O)Nc1ccc2[nH]c(=O)n([C@H]3CO[C@H](C(C)(C)C)OC3)c(=O)c2c1    < 0.5 mL/min/g

Exercise: Requested read-out: intrinsic clearance. Entry: CC(=O)Nc1ccc2[nH]c(=O)n([C@H]3CC[C@H](C(F)(F)F)CC3)c(=O)c2c1
Solution: < 0.5 mL/min/g

---

- test.protocol: Selectivity ratio, EC50 for cytotoxicity against rat L6 cells to EC50 for antitrypanosomal activity against Trypanosoma cruzi Tulahuen strain C2C4 trypomastigotes infected in rat L6 cells
- Format: toxicity, cell-based
- measurement.setup: read-out: Ratio EC50
quantity: selectivity ratio
Give bare numbers.

Examples with answers:
CC[C@H]1CC[C@H](n2c(=O)[nH]c3ccc(N)cc3c2=O)CC1    270
CC(=O)Nc1ccc2[nH]c(=O)n(CC3CCCCC3)c(=O)c2c1    23
CC[C@H]1CC[C@H](n2c(=O)[nH]c3ncc(NC(C)=O)cc3c2=O)CC1    720
CCCCCCn1c(=O)[nH]c2ccc(NC(C)=O)cc2c1=O    53
CC(=O)Nc1ccc2[nH]c(=O)n([C@H]3CC[C@@H](C(C)(C)C)CC3)c(=O)c2c1    290
CC(=O)Nc1ccc2[nH]c(=O)n(C3CCN(C(C)(C)C)CC3)c(=O)c2c1    1

Switching to the query record.
Exercise: Requested read-out: selectivity ratio. Entry: Nc1ccc2[nH]c(=O)n(CCC3CCCCC3)c(=O)c2c1
Solution: 10

---

- Test system: Trypanosoma cruzi
- test.protocol: Antitrypanosomal activity against Trypanosoma cruzi Tulahuen strain C2C4 trypomastigotes infected in rat L6 cells incubated for 96 hrs by photometric method based assay
- Format: functional, organism-based
- measurement.setup: Tulahuen strain C2C4, L6, 96 h
pEC50: −log10 of the molar value.
Each entry belongs to exactly one class, chosen by where its pEC50 falls: low interval (below 5), middle interval (5 to below 7), high interval (7 or more)

Examples from the recorded data:
Nc1ccc2[nH]c(=O)n(CCC3CCCCC3)c(=O)c2c1    middle interval
CC(=O)Nc1cnc2[nH]c(=O)n([C@H]3CC[C@H](C(C)(C)C)CC3)c(=O)c2c1    middle interval
CC(=O)Nc1ccc2[nH]c(=O)n([C@H]3CO[C@H](C(C)(C)C)OC3)c(=O)c2c1    middle interval
CC(=O)Nc1ccc2[nH]c(=O)n([C@H]3CC[C@@H](C(C)(C)C)CC3)c(=O)c2c1    high interval
CC(=O)Nc1ccc2[nH]c(=O)n(C3CCN(C(C)(C)C)CC3)c(=O)c2c1    low interval
CC(=O)Nc1ccc2[nH]c(=O)n(C(C)(C)C)c(=O)c2c1    low interval
CC(=O)Nc1ccc2[nH]c(=O)n([C@H]3CC[C@H](C(C)C)CC3)c(=O)c2c1    high interval
CC(=O)Nc1ccc2[nH]c(=O)n([C@H]3CC[C@H](C(C)(C)C)CC3)c(=O)c2c1    high interval
O=c1[nH]c2ccc(-c3cncnc3)cc2c(=O)n1CCC1CCCCC1    low interval

Could you now look at the following molecule, please?
Exercise: Which category does the recorded pEC50 put CC(=O)Nc1ccc2[nH]c(=O)n(-c3ccc(C(C)(C)C)cc3)c(=O)c2c1 in?
Solution: middle interval

---

- test.protocol: Selectivity ratio, EC50 for cytotoxicity against rat L6 cells to EC50 for antitrypanosomal activity against Trypanosoma cruzi Tulahuen strain C2C4 trypomastigotes infected in rat L6 cells
- Assay type: toxicity, cell-based
- measurement.setup: read-out: Ratio EC50
Task for the reader: assign each of the following compounds its reported selectivity ratio.
Answers are plain numbers.

Examples with answers:
CC[C@H]1CC[C@@H](n2c(=O)[nH]c3ccc(N)cc3c2=O)CC1    160
CC(C)[C@H]1CC[C@H](n2c(=O)[nH]c3ncc(N)cc3c2=O)CC1    380
CC(=O)Nc1ccc2[nH]c(=O)n(C3CCC(C(C)(C)C)C3)c(=O)c2c1 (racemic)    2100
CC(=O)Nc1ccc2[nH]c(=O)n(C(C)(C)C)c(=O)c2c1    0.6

Your task in this section: give selectivity ratio for each listed record.
1. CC[C@H]1CC[C@H](n2c(=O)[nH]c3ccc(NC(C)=O)cc3c2=O)CC1
2. CC(=O)Nc1ccc2[nH]c(=O)n(CCCC3CCCCC3)c(=O)c2c1

Solution:
240
180

---

Task for the reader: assign each of the following compounds its reported EC50.
- Tested on: Trypanosoma cruzi
- test.protocol: Antitrypanosomal activity against Trypanosoma cruzi Tulahuen strain C2C4 trypomastigotes infected in rat L6 cells incubated for 96 hrs by photometric method based assay
- Assay type: functional, organism-based
- measurement.setup: Tulahuen strain C2C4, L6, 96 h
Answers are plain numbers, in nM.

Examples with answers:
CC(=O)Nc1ccc2[nH]c(=O)n(CCC(C)C)c(=O)c2c1    9700
CC[C@H]1CC[C@H](n2c(=O)[nH]c3ccc(N)cc3c2=O)CC1    120

Switching to the query record.
Exercise: Requested read-out: EC50. Entry: CC(=O)Nc1cnc2[nH]c(=O)n([C@H]3CC[C@H](C(C)C)CC3)c(=O)c2c1
Solution: 61
